Just for reference, PubChem BioAssay (NCI) is where these values come from.

Attribute: growth
# System: PC-3 prostate
# PROCEDURE SUMMARY: NCI-60 one-dose screen, 48 h (100 = growth as untreated, 0 = no growth, -100 = all killed)
# CONDITION SET: 10 µM unless noted
Compounds without any hit were thinned out: in the full panel of roughly 83,000, 20% have a hit. Active and inactive are the calls of the source. Rule for the calls: active = growth percent below 10; inactive = the rest.

{"columns": ["MOLECULE", "growth"],
 "data": [
  ["COc1ccc(/C=C2\\CN(C(=O)C(Cl)Cl)C/C(=C\\c3ccc(OC)c(OC)c3)C2=O)cc1OC", "-7.16% (active)"],
  ["C[C@@H]1CN(c2cnc(C(=O)Nc3cc(F)cc4cccnc34)cn2)C[C@H](C)N1", "21.2% (inactive)"],
  ["C=CC(CC(c1ccccc1)(c1ccccc1)c1ccccc1)N(CC)CC (stereo not given)", "44.9% (inactive)"],
  ["COc1ccc(Cl)cc1Nc1nc(C(F)(F)F)ccc1C(=O)N/N=C/c1ccc([N+](=O)[O-])cc1", "-5.64% (active)"],
  ["Fc1cc2[nH]ncc2c2c3c(c(-c4cn[nH]c4C(F)(F)F)nc12)CCCC3", "34.6% (inactive)"],
  ["Cc1c2cnccc2c(C)c2c1c1cc(CO)ccc1n2C", "-9.48% (active)"],
  ["Cc1c2ncccc2nc2[nH]c3ccc(OCCN(C)C)cc3c12", "12.1% (inactive)"],
  ["COC(=O)[C@@]1(C)CC[C@]2(C)CC[C@]3(C)C4=CC=C5C(=CC(=O)C(O)=C5C)[C@]4(C)[C@@H](O)C[C@@]3(C)[C@@H]2C1", "29.1% (inactive)"],
  ["N=C(N)c1ccc(-c2ccc(-c3cc(Cl)cc(Cl)c3)s2)s1", "35.6% (inactive)"],
  ["CCOC(=O)NCCCC(=O)NCCc1ccccc1", "99.5% (inactive)"],
  ["O=C(CSc1nnnn1-c1ccccc1)Nc1ccc(Oc2ccccc2)cc1", "96.1% (inactive)"],
  ["N#Cc1c(-c2ccccc2)nc2c(c(-c3ccccc3)nn2-c2ccccc2)c1-c1ccc(N2CCCCC2)cc1", "90.5% (inactive)"],
  ["CS(=O)(=O)Nc1cc(-c2ccc3ncnc(Nc4ccc5c(cnn5Cc5ccncc5)c4)c3c2)cnc1Cl", "57.7% (inactive)"],
  ["CCN1C(=O)N(c2ccccc2)C2NC(=S)N(/N=C/C=C/c3ccccc3OC)C21 (stereo not given)", "29.3% (inactive)"],
  ["Nc1nc2ccccc2c2c(=O)c3cc(Cl)ccc3sc12", "90.7% (inactive)"],
  ["COc1cc2c(cc1-c1c(C)noc1C)ncc1nc(CN3CCOCC3)n([C@H](C)COC(F)F)c12", "32.3% (inactive)"],
  ["COCCn1cc(-c2csc(-c3c[nH]c4ccc(F)cc34)n2)c2cccnc21", "22.5% (inactive)"],
  ["Cc1ccc(OCCOCCOCCOc2ccc(C)n(O)c2=S)c(=S)n1O", "34.7% (inactive)"],
  ["Fc1cccc(-c2nc(-c3c[nH]c4ncccc34)cs2)c1", "59.6% [100 µM] (inactive)"],
  ["C1CCC(N2CN3c4nonc4N4CN(C5CCCCC5)CN5c6nonc6N(C2)C3C45)CC1 (stereo not given)", "87.9% (inactive)"]
]}

###

# System: SNB-75 CNS
# PROCEDURE SUMMARY: NCI-60 one-dose screen, 48 h
# CONDITION SET: 10 µM unless noted
Compounds without any hit were thinned out: in the full panel of roughly 83,000, 20% have a hit. Activity calls are given as the source filed them. The calls were made as follows: active = growth percent below 10; inactive = the rest.
Outcome codes: active, inactive

{"columns": ["COMPOUND", "LABEL"],
 "data": [
  ["Nc1cccc(-c2ccc(COc3ccc(CC4SC(=O)NC4=O)cc3)cc2)c1 (centres undefined)", "inactive"],
  ["C=C1C(=O)O[C@@H]2C3C(=C(C)CC[C@@H]12)CC1O[C@]13C (some centres undefined)", "inactive"],
  ["CC(C)C1C2=C(NCCN1C(=O)c1ccncc1)C(C)(C)N(Cc1ccccc1)C2=O (centres undefined)", "inactive"],
  ["Cc1cccc(N=Nc2cccc(C)c2)c1", "inactive"],
  ["C=C(C)[C@@H]1CC[C@]2(C)[C@H](C=CC3=C4C[C@@](C)(CO)CC[C@]4(C)CC[C@]32C)[C@@]1(C)CCCN", "active"],
  ["C=CCn1cc(-c2nc3ccccc3s2)c2cc(-c3ccc4c5c(cccc35)C(=O)N(CCO)C4=O)ccc21", "inactive"],
  ["COC(=O)c1c2c(c(C)[n+]([O-])c1C)C(=O)C(NCc1ccccc1)=CC2=O", "inactive"],
  ["C=C(C)[C@@H]1CC[C@]2(COC3CCCCO3)CC[C@]3(C)[C@H](CC[C@@H]4[C@@]5(C)C=C(C=O)C(=O)C(C)(C)[C@@H]5CC[C@]43C)[C@@H]12 (some centres undefined)", "active"],
  ["CN(C)CCC(=O)C1CC1", "inactive"],
  ["N#Cc1ccccc1-c1ccc(CN2C(=O)S/C(=C\\c3ccc(Br)cc3)C2=O)cc1", "inactive"],
  ["C/C(Cc1ccc(Cl)cc1)=C(\\c1ccc(OCCN2CCCCCC2)cc1)c1ccc(OC(=O)c2ccccc2)cc1", "inactive"],
  ["CCN(CC)C(=O)C1=C(C)NC(=O)NC1c1ccc2c(c1)OCO2 (centres undefined)", "inactive"],
  ["O=S(=O)(Nc1ccc2ccccc2c1)c1ccc(-c2cnc(C3CC3)o2)cc1", "active"],
  ["CC(=O)c1sc(-c2ccc(F)cc2)cc1O", "inactive"],
  ["Cn1c(=O)[nH]c(=O)c2nc3c(nc21)-c1ccccc1C3=O", "inactive"],
  ["COc1ccc(-c2cc(C(=O)N3N=C(c4ccc(N)cc4)CC3c3ccc(Cl)cc3)c3cc(OC)ccc3n2)cc1 (centres undefined)", "inactive"],
  ["COc1ccc2cc(C(=O)N3CCC([C@@H](C)C(=O)NCc4ccc5c(c4)OCO5)CC3)[nH]c2c1", "active"],
  ["Clc1ccc(Nc2ncc(Cc3cccc(Cl)c3Cl)s2)cc1", "inactive"],
  ["O=C(NCCCCCCNC(=O)OCc1ccc2c(Cl)cc(Cl)c(O)c2n1)OCc1ccc2c(Cl)cc(Cl)c(O)c2n1", "active"]
]}

###

# System: M14 melanoma
# PROCEDURE SUMMARY: NCI-60 one-dose screen, 48 h (100 = growth as untreated, 0 = no growth, -100 = all killed)
# CONDITION SET: 10 µM unless noted
This is part of a sample that, as a whole, favours compounds with a hit. Of some 83,000 tested, about 20% had one in any assay. Calls of active or inactive are those of the source. Rule for the calls: active = growth percent below 10; inactive = the rest.
// growth lookup, one value per entry
QUANTITY: growth

{"columns": ["MOLECULE", "EXPERIMENTAL RESULT"],
 "data": [
  ["O=c1oc2c(cnc3ccccc32)cc1-c1cccc(Cl)c1", "112% (inactive)"],
  ["COc1cc2c(cc1OCCCN1CCN(C(=S)SCCC(C#N)(c3ccccc3)c3ccccc3)CC1)N=C[C@@H]1CCCN1C2=O", "-76.6% (active)"],
  ["O=C(NCCNC(c1ccccc1)C(NCCNC(=O)c1ccccc1)c1ccccc1)c1ccccc1 (configuration not stated)", "86.3% (inactive)"],
  ["Clc1ccc(-c2nc(C(Cl)Cl)nc3cc(-c4ccccc4)nn23)cc1", "24.2% (inactive)"],
  ["COc1ccc(C2CC(c3ccccc3)=NN2C(=O)c2cc(OC)c(OC)c(OC)c2)cc1O (configuration not stated)", "13.4% (inactive)"],
  ["Cn1c(C#N)ccc1-c1ccc(F)c(NC(=O)c2ccc(F)cc2)c1", "59.8% (inactive)"],
  ["COc1cc(O)c2c(=O)c3c(CC=C(C)C)cc(OC)c(O)c3oc2c1", "15.6% (inactive)"],
  ["Cc1[nH]c(C(=O)Nc2ccccc2OC2CCN(CCN3CCOCC3)CC2)c(Cl)c1Cl", "106% (inactive)"],
  ["N[C@@H]1CCC[C@H]1NCCCCN1C(=O)c2cccc3cc([N+](=O)[O-])cc(c23)C1=O", "63.7% (inactive)"],
  ["CCOc1ncc([N+](=O)[O-])c(OCC)n1", "112% (inactive)"],
  ["COC(=O)c1c2c(c[n+]([O-])c1C)C(=O)C=C(NCc1ccccc1)C2=O", "-92.2% (active)"],
  ["CCn1cc(Cc2cc(C(=O)Nc3cc4cc(OC)c(OC)cc4c(C)n3)ccc2Cl)cn1", "32.6% (inactive)"],
  ["Cc1ccc(S(=O)(=O)OCC#CCOS(=O)(=O)c2ccc(C)cc2)cc1", "43.6% (inactive)"],
  ["Cc1cccc(NC(=O)N/C(N)=N/c2nc3ccccc3s2)c1", "16.5% (inactive)"],
  ["c1ccc(-c2ccc3c(c2)C2(CCNCC2)CN3)cc1", "92.3% (inactive)"],
  ["O=C(Nc1cccnc1Nc1ccc(Cl)cc1)c1cn(Cc2cccc(Oc3ccccc3)c2)nn1", "21.8% (inactive)"],
  ["c1ccc(-c2nc3ccccc3[nH]2)c(OCCCCCOc2ccccc2-c2nc3ccccc3[nH]2)c1", "95.1% (inactive)"],
  ["Cc1cc(N2CCN(CC(=O)Nc3ccc4c(ccn4Cc4ccccc4)c3)CC2)nc(N2CCOCC2)n1", "90.1% (inactive)"],
  ["O=[N+]([O-])c1ccccc1Nc1ccc2ccccc2c1", "91.3% (inactive)"],
  ["CNC(=O)c1cc(Oc2ccc3c(c2)sc2nc(-c4ccc(Cl)c(C(F)(F)F)c4)cn23)ccn1", "69.5% (inactive)"],
  ["Cc1cccc(NC(=O)Cn2cc(CN3CCN(c4ccnc5cc(Cl)ccc45)CC3)nn2)c1", "92.5% (inactive)"],
  ["Cc1c2ncccc2nc2[nH]c3ccc(OCCN(C)C)cc3c12", "19.4% (inactive)"],
  ["Nc1[nH]nc2nc(-c3ccccc3)n3c4ccccc4nc3c12", "99.5% (inactive)"],
  ["CN(C)CCCn1c2c(c3cnccc3c1=O)C(=O)c1ccccc1-2", "-47.9% (active)"],
  ["Nc1nc(C(=O)N/N=C/c2ccc(F)cc2)nn1-c1ccc(S(N)(=O)=O)cc1", "99.5% (inactive)"],
  ["Cn1c(=O)[nH]c(=O)c2nc3c(nc21)-c1ccccc1C3=O", "99.4% (inactive)"],
  ["Fc1ccc(/C=C/[C@@H]2C[C@@H](F)CCO2)cc1", "85.5% (inactive)"],
  ["CC(O)Cc1c[nH]c(=O)[nH]c1=O (configuration not stated)", "102% (inactive)"],
  ["C[C@H]1[C@H](C)CC[C@]2(C(=O)NCCNCCN)CC[C@]3(C)C(=CC[C@@H]4[C@@]5(C)CCC(=O)C(C)(C)[C@@H]5CC[C@]43C)[C@H]12", "40.9% (inactive)"],
  ["S=c1ccnc[nH]1", "96.6% (inactive)"],
  ["CC1=Nc2cnc(Nc3ccc(N4CCCCC4)cc3)nc2Nc2ccccc21", "71.5% (inactive)"],
  ["N=C(N)c1ccc(-c2ccc(-c3cc(Cl)cc(Cl)c3)s2)s1", "1.55% (active)"],
  ["Nc1cc(C(=O)O)cc(-n2c(O)c(C=C3N=c4ccccc4=N3)sc2=S)c1", "97.9% (inactive)"],
  ["CNC(=O)Nc1ccc(-c2ccc3ncnc(Nc4cccc(Cl)c4)c3c2)cc1", "63.2% (inactive)"],
  ["O=C1/C(=C/c2ccc(Cl)cc2)CN(C(=O)C(Cl)Cl)C/C1=C\\c1ccc(Cl)cc1", "-68.7% (active)"],
  ["C=C1CC[C@@H]2C(C)(C)[C@H](O)CC[C@@]2(C)[C@@H]1COc1ccc2ccc(=O)oc2c1", "53.3% (inactive)"],
  ["Fc1cccc(-c2nc(-c3c[nH]c4ncccc34)cs2)c1", "22.2% [100 µM] (inactive)"],
  ["CC1=C2CC/C(C)=C/CC[C@]3(C)O[C@H]3CC/C(C)=C/[C@H]2OC1", "103% (inactive)"],
  ["COC(=O)c1c2c(c(C)[n+]([O-])c1C)C(=O)C(NCc1ccccc1)=CC2=O", "9.18% (active)"],
  ["Nc1nc(N(Cc2ccccc2)c2ccccc2)c2cn[nH]c2n1", "33.5% (inactive)"],
  ["CCOc1ccc(NC(=O)Nc2ccc(OCC)cc2)cc1", "109% (inactive)"],
  ["COc1cc(C[C@H]2COc3cc(O)cc(O)c3C2=O)ccc1O", "9.16% (active)"]
]}
